# experiment.notes: Plasma protein binding in dog at 10 uM assessed as bound fraction
# Type: ADME, cell-free, Canis lupus familiaris
# test.context: read-out: PPB (converted)
readout.kind: fraction unbound at 10 µM

given_smiles=C#C[C@@]1(O)[C@@H](COC(Cc2ccc(N3CCCNC3=O)cc2)(C(=O)O)C(=O)O)O[C@@H](n2cnc3c(N)nc(Cl)nc32)[C@@H]1O readout_kind="fraction unbound at 10 µM" readout_number=0.58

###

# experiment.notes: Plasma protein binding in monkey at 10 uM assessed as bound fraction
# Format: ADME, cell-free, Macaca mulatta
# test.context: rhesus monkey, read-out: PPB (converted)
readout.kind: fraction unbound at 10 µM

given_smiles=C#C[C@@]1(O)[C@@H](COC(Cc2ccc(N3CCCNC3=O)cc2)(C(=O)O)C(=O)O)O[C@@H](n2cnc3c(N)nc(Cl)nc32)[C@@H]1O readout_number=0.4

###

# experiment.notes: Aqueous solubility of compound at pH 1 to 7
# Type: physicochemical
# test.context: aqueous solution
readout.kind: solubility (µg/mL)

given_smiles=C#C[C@@]1(O)[C@@H](COC(Cc2ccc(N3CCCNC3=O)cc2)(C(=O)O)C(=O)O)O[C@@H](n2cnc3c(N)nc(Cl)nc32)[C@@H]1O readout_kind=solubility readout_number=3880

###

# experiment.notes: Clearance in CD rat at 1 mg/kg, iv measured for 24 hrs by LC-MS/MS analysis
# Assay type: ADME, organism-based
# test.context: in vivo
readout.kind: clearance (mL/min/kg)

given_smiles=C#C[C@@]1(O)[C@@H](COC(Cc2ccccc2)(C(=O)O)C(=O)O)O[C@@H](n2cnc3c(N)nc(Cl)nc32)[C@@H]1O readout_number=13
given_smiles=C#C[C@@]1(O)[C@@H](COC(Cc2ccccc2)(C(=O)O)C(=O)O)O[C@@H](n2cnc3c(NCC4CC4)nc(Cl)nc32)[C@@H]1O readout_number=3.7
given_smiles=C#C[C@@]1(O)[C@@H](COC(Cc2ccccc2)(C(=O)O)C(=O)O)O[C@@H](n2cnc3c(NC(C)C)nc(Cl)nc32)[C@@H]1O readout_number=1.4
given_smiles=C#C[C@@]1(O)[C@@H](COC(Cc2ccccc2)(C(=O)O)C(=O)O)O[C@@H](n2cnc3c(N(C)C)nc(Cl)nc32)[C@@H]1O readout_number=18

###

# experiment.notes: Plasma protein binding in human at 10 uM assessed as bound fraction
# Type: ADME, cell-free
# test.context: read-out: PPB (converted)
readout.kind: fraction unbound at 10 µM

given_smiles=C#C[C@@]1(O)[C@@H](COC(Cc2ccc(N3CCCNC3=O)cc2)(C(=O)O)C(=O)O)O[C@@H](n2cnc3c(N)nc(Cl)nc32)[C@@H]1O readout_number=0.42

###

# measurement.target: 5'-nucleotidase (Homo sapiens)
# Sequence (P21589 whole entry): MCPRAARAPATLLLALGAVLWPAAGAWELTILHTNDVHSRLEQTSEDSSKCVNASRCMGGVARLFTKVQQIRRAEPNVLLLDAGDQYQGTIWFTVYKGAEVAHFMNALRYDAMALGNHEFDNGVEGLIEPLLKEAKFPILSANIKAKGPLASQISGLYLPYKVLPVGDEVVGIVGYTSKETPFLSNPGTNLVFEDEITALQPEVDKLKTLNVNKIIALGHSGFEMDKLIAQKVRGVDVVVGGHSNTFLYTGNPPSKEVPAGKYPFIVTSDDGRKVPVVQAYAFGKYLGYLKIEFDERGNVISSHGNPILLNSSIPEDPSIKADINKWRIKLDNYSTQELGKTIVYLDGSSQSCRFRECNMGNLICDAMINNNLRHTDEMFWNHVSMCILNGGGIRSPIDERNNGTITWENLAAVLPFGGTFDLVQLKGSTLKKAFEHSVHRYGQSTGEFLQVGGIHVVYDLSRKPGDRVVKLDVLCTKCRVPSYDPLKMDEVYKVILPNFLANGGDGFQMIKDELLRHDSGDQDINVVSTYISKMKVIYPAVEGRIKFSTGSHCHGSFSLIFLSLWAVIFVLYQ
# experiment.notes: Inhibition of CD73 in human plasma incubated for 15 mins in presence of 15N5-AMP by LC/MS analysis
# Format: cell-free
Recorded measurements of IC50, one per entry
readout.kind: IC50

given_smiles=C#C[C@@]1(O)[C@@H](COC(Cc2ccccc2)(C(=O)O)C(=O)O)O[C@@H](n2cnc3c(NC(C)C)nc(Cl)nc32)[C@@H]1O readout_kind=IC50 result="50 nM"
given_smiles=C#C[C@@]1(O)[C@@H](COC(Cc2ccccc2)(C(=O)O)C(=O)O)O[C@@H](n2cnc3c(N4CC(O)C4)nc(Cl)nc32)[C@@H]1O readout_kind=IC50 result="5.4 nM"
given_smiles=C#C[C@@]1(O)[C@@H](COC(Cc2ccccc2)(C(=O)O)C(=O)O)O[C@@H](n2cnc3c(N[C@@H](C)c4ccccc4)nc(Cl)nc32)[C@@H]1O readout_kind=IC50 result="208 nM"
given_smiles=C#C[C@@]1(O)[C@@H](COC(Cc2ccccc2)(C(=O)O)C(=O)O)O[C@@H](n2cnc3c(NC(C)C)cc(Cl)nc32)[C@@H]1O readout_kind=IC50 result="160 nM"
given_smiles=C#C[C@@]1(O)[C@@H](COC(Cc2ccc(-c3ccccc3)cc2)(C(=O)O)C(=O)O)O[C@@H](n2cnc3c(N)nc(Cl)nc32)[C@@H]1O readout_kind=IC50 result="15.6 nM"
given_smiles=C#C[C@@]1(O)[C@@H](COC(Cc2ccccc2)(C(=O)O)C(=O)O)O[C@@H](n2cnc3c(N(C)C)nc(Cl)nc32)[C@@H]1O readout_kind=IC50 result="16 nM"
given_smiles=C#C[C@@]1(O)[C@@H](COC(Cc2ccccc2)(C(=O)O)C(=O)O)O[C@@H](n2cnc3c(N(C)C)cc(Cl)nc32)[C@@H]1O readout_kind=IC50 result="41 nM"
given_smiles=Nc1nc(Cl)nc2c1ncn2[C@@H]1O[C@H](COC(Cc2ccccc2)(C(=O)O)C(=O)O)[C@](O)(C#CC2CC2)[C@H]1O readout_kind=IC50 result="1.5 nM"
given_smiles=C#C[C@@]1(O)[C@@H](COC(Cc2ccc(-c3ccccc3C(=O)O)cc2)(C(=O)O)C(=O)O)O[C@@H](n2cnc3c(N)nc(Cl)nc32)[C@@H]1O readout_kind=IC50 result="2.8 nM"
given_smiles=C#C[C@@]1(O)[C@@H](COC(Cc2ccccc2)(C(=O)O)C(=O)O)O[C@@H](n2cnc3c(NC)nc(Cl)nc32)[C@@H]1O readout_kind=IC50 result="15.5 nM"
given_smiles=CC#C[C@@]1(O)[C@@H](COC(Cc2ccccc2)(C(=O)O)C(=O)O)O[C@@H](n2cnc3c(N)nc(Cl)nc32)[C@@H]1O readout_kind=IC50 result="1.6 nM"
given_smiles=C#C[C@@]1(O)[C@@H](COC(Cc2ccccc2)(C(=O)O)C(=O)O)O[C@@H](n2cnc3c(NCC)nc(Cl)nc32)[C@@H]1O readout_kind=IC50 result="6.5 nM"
given_smiles=C#C[C@@]1(O)[C@@H](COC(Cc2ccccc2)(C(=O)O)C(=O)O)O[C@@H](n2cnc3c(NCc4ccccc4)nc(Cl)nc32)[C@@H]1O readout_kind=IC50 result="> 100 nM"
given_smiles=C#C[C@@]1(O)[C@@H](COC(Cc2ccccc2)(C(=O)O)C(=O)O)O[C@@H](n2cnc3c(NCC4CC4)nc(Cl)nc32)[C@@H]1O readout_kind=IC50 result="11.5 nM"
given_smiles=C#C[C@@]1(O)[C@@H](COC(Cc2ccccc2)(C(=O)O)C(=O)O)O[C@@H](n2cnc3c(N[C@H](C)c4ccccc4)nc(Cl)nc32)[C@@H]1O readout_kind=IC50 result="917 nM"
